Each item that follows carries a reported aptazyme ON/OFF ratio.
B1: Pistol ribozyme (parent)
chain: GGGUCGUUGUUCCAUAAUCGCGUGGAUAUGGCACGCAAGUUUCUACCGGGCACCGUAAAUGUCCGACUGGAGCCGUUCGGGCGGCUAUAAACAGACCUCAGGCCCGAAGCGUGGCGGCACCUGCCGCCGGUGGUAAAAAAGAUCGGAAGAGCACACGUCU

# Variants of: B1
# assay: aptazyme ON/OFF ratio, guanine; higher = stronger switching; co-transcriptional cleavage with and without guanine
Note: the reply should be a number with no unit written.

Consider the following illustrative entries.
{"mutationAnnotation": "U7G U8A U10G U11C C12A", "observed": 1.48}
{"mutationAnnotation": "U7G G9C U10A C12U", "observed": 1.18}
{"mutationAnnotation": "U7A C12G C13G", "observed": 1.26}
{"mutationAnnotation": "G9C U10C U11G C12G C13G", "observed": 1.13}
{"mutationAnnotation": "U7A U8G U10A U11G C12G C13G", "observed": 1.43}
{"mutationAnnotation": "U7A U10G U11A C12U", "observed": 1.13}
{"mutationAnnotation": "U7C U8C G9C U10C U11C C12A C13A", "observed": 0.986}
{"mutationAnnotation": "U7G G9C U10C U11A C12U C13A", "observed": 1.18}
{"mutationAnnotation": "U7C G9C C12U C13A", "observed": 1.01}
{"mutationAnnotation": "U8A G9A U10A U11C C12G C13A", "observed": 1.16}

[Q] // lookup aptazyme ON/OFF ratio for `U11A`
[A] 1.84

[Q] // lookup aptazyme ON/OFF ratio for U7G G9C U10C U11G
[A] 1.18

[Q] // lookup aptazyme ON/OFF ratio for U7A G9A U10C U11C C13G
[A] 1.03

[Q] // lookup aptazyme ON/OFF ratio for U8A G9C U10C C13A
[A] 1.01

[Q] // lookup aptazyme ON/OFF ratio for U11G C13G
[A] 1.03

[Q] // lookup aptazyme ON/OFF ratio for U7A U8C U10A C12G C13G
[A] 1.23

[Q] // lookup aptazyme ON/OFF ratio for U8G G9A U11G C12A C13U
[A] 1.24

[Q] // lookup aptazyme ON/OFF ratio for U7G U8C G9A U10A C12U C13A
[A] 1.15

[Q] // lookup aptazyme ON/OFF ratio for U7A U8C U10G U11A C12G C13A
[A] 1.18
